Cited source for all entries: ChEMBL document CHEMBL1201862

Parameter GI50: see the listing below.
System: NCI-H23
measurement-protocol: NCI tumour cell line growth inhibition, 48 h
The source made the active and inactive calls. Rule as the data show it: active = GI50 up to about 1.1 µM and inactive = higher.

Some compounds with recorded GI50:
>>> experimental_value("COc1cc2nc(-c3cccs3)nc(Nc3cccc(Cl)c3)c2cc1OC")
"54.6 µM (inactive)"
>>> experimental_value("O=C(NCCO)c1ccc(Cl)cc1")
"> 100 µM (inactive)"
>>> experimental_value("O=C1CCCCC[C@]12SC[C@H]1CON=C12")
"94.8 µM (inactive)"
>>> experimental_value("Cc1ccn2c(c1)nc1nc3ccccc3nc12")
"> 100 µM (inactive)"
>>> experimental_value("O=C1NCN(c2ccccc2)C12CCN(CCCSc1ccc(F)cc1)CC2")
"27.7 µM (inactive)"

For CC1=CC(=O)NP(=O)(C23CC4CC(CC(C4)C2)C3)N1 (configuration not stated) , what is its reported GI50?
> 100 µM (inactive)

For CC(C)=C1CCC(CN2CCOCC2)C1=O (configuration not stated) , what is its reported GI50?
17.7 µM (inactive)

For COc1cc2c(NCCCCCO)ncnc2c(OC)c1OC , what is its reported GI50?
> 100 µM (inactive)
